Test system: L1210 leukemia ip in BDF1 mice, survival T/C
Test: NCI In Vivo Anticancer Drug Screen. Data for tumor model L1210 Leukemia (intraperitoneal) in B6D2F1 (BDF1) mice
Conditions: endpoint: mean survival time; dose: 100.0 mg/kg/injection; schedule: Q01DX009 (ip); vehicle: Klucel (hydroxypropylcellulose) (HPC)
Toxic doses and inconclusive results are not listed. Rule as the data show it: active = T/C of 150% or more; inactive = T/C below 125%.
Answer with one of the outcomes given here: y (active), n (inactive)

Worked examples follow.
• COc1ccc([N+](=O)[O-])cc1NC(=O)Nc1ccc(SC)cc1 = n
• CS(=O)(=O)Oc1c(Cl)cc(S(=O)(=O)F)cc1Cl = n
• O=[N+]([O-])c1ccc(S(=O)(=O)O/N=C2\c3ccccc3-c3ccc([N+](=O)[O-])cc32)cc1 = y
• O=[N+]([O-])c1cnc2ccnn2c1 = n
• CC1(C(=O)c2ccccc2)OC1c1ccccc1 (stereo not given) = n
• Cc1ccc(C(=O)O)cc1-n1c(-c2ccc(Cl)cc2)nnc1-c1ccc(Br)cc1 = n
• Cc1cc(C)n(/N=C/c2ccccc2[N+](=O)[O-])c(=O)c1C#N = n
• Cc1ccc2c(c1)Nc1ccccc1C(=O)N2 = n

Input: Please share the test call associated with CC1CNC(=S)S1 (stereo not given) .
Output: n

Input: Please share the test call associated with `CC(=O)c1c(C)c(Cl)c(C)c(Cl)c1O` .
Output: n

Input: Please share the test call associated with `CN(C)c1ccc(/C=N\N=C/c2ccc(N(C)C)cc2)cc1` .
Output: n

Input: Please share the test call associated with `CC(C)(C)C(=O)CC(=O)C(C)(C)C.CC(C)(C)C(=O)CC(=O)C(C)(C)C.CC(C)(C)C(=O)CC(=O)C(C)(C)C.[Al]` .
Output: n

====

System: L1210 leukemia ip in BDF1 mice, survival T/C
Test: NCI In Vivo Anticancer Drug Screen. Data for tumor model L1210 Leukemia (intraperitoneal) in B6D2F1 (BDF1) mice
Conditions: endpoint: mean survival time; dose: 400.0 mg/kg/injection; schedule: Q01DX009 (ip); vehicle: Klucel (hydroxypropylcellulose) (HPC); higher = longer survival
Description: The antitumor activity of compounds was measured in mice bearing transplantable tumors. Survival or tumor size were measured and the results are expressed as the measurement made in the treated group (T) divided by the measurement made in the vehicle treated control group (C). The tumor model used in this assay is L1210 Leukemia (intraperitoneal) in B6D2F1 (BDF1) mice
Toxic doses and inconclusive results are not listed.
experimental.endpoint: T/C

* CC1CCCC(C)N1NC(=O)NCCCl (stereo not given) | 102 % of control
* Cc1cccc(C)c1N1C(=O)CCC1=O | 100 % of control
* Nc1ncnc(Nc2ccc([N+](=O)[O-])cc2)c1[N+](=O)[O-] | 96 % of control
* COc1ccc(NC(=O)Nc2ccccc2Cl)cc1 | 91 % of control

# per-item lookup of T/C; items listed below
1. CCOC(=O)C1CCCC23CC(CC12)C(C)(C)C3Br (stereo not given)
2. Nc1ccc(/C=C/c2ccncc2)cc1
3. Cc1cc(C)c(C(C)(CS(C)(=O)=O)CS(C)(=O)=O)c(C)c1C(C)(CS(C)(=O)=O)CS(C)(=O)=O
4. CCOC(OCC)c1cc(=O)[nH]c(N)n1

Output:
94 % of control
102 % of control
105 % of control
96 % of control

# per-item lookup of T/C; items listed below
1. O=S1(=O)C(C(O)(c2ccccc2)c2ccccc2)CCC1C(O)(c1ccccc1)c1ccccc1 (stereo not given)
2. CC1CC2C(CC1=O)C(C)(C)CCC2(C)C (stereo not given)
3. BrC1CC/C=C\CCC1Br (stereo not given)
4. COC(=O)C1CC=CC(C)C1C(=O)OC (stereo not given)
5. COc1ccccc1NC(=O)c1ccccc1
6. Cc1cccc(NC(=O)c2cccc(F)c2)c1C
7. O=[N+]([O-])c1ccc(S(=O)(=O)O/N=C2\c3ccccc3-c3ccc([N+](=O)[O-])cc32)cc1
8. O=P(CCl)(NC12CC3CC(CC(C3)C1)C2)N1CC1 (stereo not given)

Output:
1: 93 % of control; 2: 90 % of control; 3: 93 % of control; 4: 100 % of control; 5: 95 % of control; 6: 94 % of control; 7: 109 % of control; 8: 103 % of control

# per-item lookup of T/C; items listed below
1. CCOC(=O)c1cnc(SC)nc1Nc1ccc(Cl)cc1Cl
2. COc1cccc(N=Cc2ccc(C=Nc3cccc(OC)c3)cc2)c1

Output:
["92 % of control", "88 % of control"]

# per-item lookup of T/C; items listed below
1. C=C[C@H]1CN2CC[C@H]1C[C@@H]2[C@@H](O)c1ccnc2ccccc12
2. NC(=O)c1ccccc1NC(=O)Nc1ccc(Cl)cc1
3. CC(=O)c1cccc(N=Cc2ccc(Cl)cc2Cl)c1
4. O=C(Nc1ccc(S(=O)(=O)F)cc1[N+](=O)[O-])c1ccc2ccccc2c1O
5. CC(C)(C)C(=O)CC(=O)C(C)(C)C.CC(C)(C)C(=O)CC(=O)C(C)(C)C.CC(C)(C)C(=O)CC(=O)C(C)(C)C.[Al]
6. C=CCNC(=S)Nc1cccc(O)c1
7. COc1cc(N(C)C)ccc1C=O

Output:
93 % of control
91 % of control
93 % of control
93 % of control
97 % of control
107 % of control
105 % of control

====

Tested on: L1210 leukemia ip in BDF1 mice, survival T/C
Experiment: NCI In Vivo Anticancer Drug Screen. Data for tumor model L1210 Leukemia (intraperitoneal) in B6D2F1 (BDF1) mice
Conditions: endpoint: mean survival time; dose: 400.0 mg/kg/injection; schedule: Q01DX001 (ip); vehicle: saline; higher = longer survival
Toxic doses and inconclusive results are not listed.
experimental.endpoint: T/C

- CC(C)(C)/C([O-])=N/[N+](C)(C)C: 101 % of control
- COC1OC(CI)C(O)C(O)C1O (configuration not stated): 120 % of control
- Cc1ccc(C)c2c3c(oc12)CCCC3: 105 % of control
- CC(C)CCC(C)c1ccncc1 (configuration not stated): 100 % of control
- CCCCCCCCCCCCCC(CCC)CCC: 94 % of control
- COC(=O)/C=C(\C)Nc1cc(OC)ccc1OC: 92 % of control
- O=C1C(O)CCN1Cc1ccccc1 (configuration not stated): 102 % of control
- CCCCCCCCCCCCCCCCCCNC(=S)Nc1ccc(S(=O)(=O)c2ccc(NC(=S)NCCCCCCCCCCCCCCCCCC)cc2)cc1: 106 % of control

# per-item lookup of T/C; items listed below
1. O=C(C[P+](c1ccccc1)(c1ccccc1)c1ccccc1)c1ccc([N+](=O)[O-])cc1
2. CC(=O)O/N=C(\C)C12CCCCC1C(O)CCC2 (configuration not stated)
3. CC(C)c1cc(C(C)C)c(S(=O)(=O)Cl)c(C(C)C)c1
4. CCOC(=O)C1=NN(c2ccccc2)C(=O)C1N=Nc1ccc(S(N)(=O)=O)cc1 (configuration not stated)

Output:
["100 % of control", "91 % of control", "98 % of control", "93 % of control"]

====

Test system: L1210 leukemia ip in BDF1 mice, survival T/C
Assay: NCI In Vivo Anticancer Drug Screen. Data for tumor model L1210 Leukemia (intraperitoneal) in B6D2F1 (BDF1) mice
Conditions: endpoint: mean survival time; dose: 100.0 mg/kg/injection; schedule: Q01DX001 (ip); vehicle: saline; higher = longer survival
Toxic doses and inconclusive results are not listed. Square brackets hold non-standard residues; d marks the D form. Peptide text beside a SMILES is read from it. * marks the point of attachment. Arg(NO2) = N=C(NCCC[CH](N)C(=O)O)N[N+](=O)[O-]; Cbz = O=C(OCc1ccccc1)*
Field: T/C. Provide a value for each of the molecules that follow.

# per-item lookup of T/C; items listed below
1. COC(=O)C(CCCN=C(N)N[N+](=O)[O-])NC(=O)C(Cc1ccccc1)NC(=O)C1CCCN1C(=O)OCc1ccccc1 (stereo not drawn) (Cbz-Pro-Phe-[Arg(NO2)]-OMe; configuration not given here)
2. O=C(CCCC(=O)NNC(=O)Nc1cccc(Cl)c1)NNC(=O)Nc1cccc(Cl)c1
3. CCCC(=O)NO
4. Cn1c2c(c(=O)n(C)c1=O)NC1(N2)C(=O)Nc2ccccc21 (centres undefined)

Output:
90 % of control
106 % of control
97 % of control
101 % of control

====

Test system: L1210 leukemia ip in BDF1 mice, survival T/C
Test: NCI In Vivo Anticancer Drug Screen. Data for tumor model L1210 Leukemia (intraperitoneal) in B6D2F1 (BDF1) mice
Details: endpoint: mean survival time; dose: 25.0 mg/kg/injection; schedule: Q01DX009 (ip); vehicle: saline with Tween-80; higher = longer survival
Inconclusive results and toxic doses are left out.
experimental.endpoint: T/C

• Cc1cc(SC#N)ccc1O = 102 % of control
• CCN(CC)C(=O)c1cccc(COc2ccc(N3C(N)=NC(N)=NC3(C)C)cc2Cl)c1 = 107 % of control
• CN(C)S(=O)(=O)c1ccc(NC(=O)CI)cc1 = 106 % of control
• O=[N+]([O-])c1ccc(C(O)Nc2nccs2)o1 (configuration not stated) = 96 % of control
• C/C(=N\N)c1ccc(Cl)cc1 = 96 % of control
• CC(C)(C)OC(=O)N1CCCC1C(=O)Oc1ccc([N+](=O)[O-])cc1 (configuration not stated) = 102 % of control

Consider now this further compound.
Input: Look up and state reported T/C for `CC(C)(C)c1ccc(N)cc1Br`
Output: 93 % of control
